Data credit: the supplement of paper PMC10307832

System: HARA
assay_notes: relative viability (nuclei count vs DMSO), 5 days (fraction); higher = more cells survive
condition_label: first compound 0.000632 µM
assay_metric: relative viability
API doc: respond with a numeric literal and nothing else, no unit.

Before answering, review these 4 worked examples.
CC(=O)O[C@@]12CO[C@@H]1C[C@H](O)[C@@]1(C)C(=O)[C@H](O)C3=C(C)[C@@H](OC(=O)[C@H](O)[C@@H](NC(=O)OC(C)(C)C)c4ccccc4)C[C@@](O)([C@@H](OC(=O)c4ccccc4)[C@H]21)C3(C)C [Docetaxel] + COc1cc2c(Oc3ccc(NC(=O)C4(C(=O)Nc5ccc(F)cc5)CC4)cc3F)ccnc2cc1OCCCN1CCOCC1 [Foretinib] (partner 0.25 µM) ... 0.128
CC(=O)O[C@@]12CO[C@@H]1C[C@H](O)[C@@]1(C)C(=O)[C@H](O)C3=C(C)[C@@H](OC(=O)[C@H](O)[C@@H](NC(=O)OC(C)(C)C)c4ccccc4)C[C@@](O)([C@@H](OC(=O)c4ccccc4)[C@H]21)C3(C)C [Docetaxel] + CS(=O)(=O)CCNCc1ccc(-c2ccc3ncnc(Nc4ccc(OCc5cccc(F)c5)c(Cl)c4)c3c2)o1 [Lapatinib] (partner 2 µM) ... 0.302
CC(=O)O[C@@]12CO[C@@H]1C[C@H](O)[C@@]1(C)C(=O)[C@H](O)C3=C(C)[C@@H](OC(=O)[C@H](O)[C@@H](NC(=O)OC(C)(C)C)c4ccccc4)C[C@@](O)([C@@H](OC(=O)c4ccccc4)[C@H]21)C3(C)C [Docetaxel] + N=C(N)NC(=N)NCCc1ccccc1 [Phenformin] (partner 250 µM) ... 0.19
CC(=O)O[C@@]12CO[C@@H]1C[C@H](O)[C@@]1(C)C(=O)[C@H](O)C3=C(C)[C@@H](OC(=O)[C@H](O)[C@@H](NC(=O)OC(C)(C)C)c4ccccc4)C[C@@](O)([C@@H](OC(=O)c4ccccc4)[C@H]21)C3(C)C [Docetaxel] + CCNC(=O)c1noc(-c2cc(C(C)C)c(O)cc2O)c1-c1ccc(CN2CCOCC2)cc1 [Luminespib] (partner 0.01 µM) ... 0.124

For the next question, use this compound.
Return relative viability for the following compound: CC(=O)O[C@@]12CO[C@@H]1C[C@H](O)[C@@]1(C)C(=O)[C@H](O)C3=C(C)[C@@H](OC(=O)[C@H](O)[C@@H](NC(=O)OC(C)(C)C)c4ccccc4)C[C@@](O)([C@@H](OC(=O)c4ccccc4)[C@H]21)C3(C)C [Docetaxel] + C[C@]1(O)C[C@@H](c2nc(-c3ccc4ccc(-c5ccccc5)nc4c3)c3c(N)nccn32)C1 [Linsitinib] (partner 1 µM)
0.482
